Target or test system: σNS (sigma NS) (Avian reovirus strain 1733) (UniProt W8NR44)
Sequence: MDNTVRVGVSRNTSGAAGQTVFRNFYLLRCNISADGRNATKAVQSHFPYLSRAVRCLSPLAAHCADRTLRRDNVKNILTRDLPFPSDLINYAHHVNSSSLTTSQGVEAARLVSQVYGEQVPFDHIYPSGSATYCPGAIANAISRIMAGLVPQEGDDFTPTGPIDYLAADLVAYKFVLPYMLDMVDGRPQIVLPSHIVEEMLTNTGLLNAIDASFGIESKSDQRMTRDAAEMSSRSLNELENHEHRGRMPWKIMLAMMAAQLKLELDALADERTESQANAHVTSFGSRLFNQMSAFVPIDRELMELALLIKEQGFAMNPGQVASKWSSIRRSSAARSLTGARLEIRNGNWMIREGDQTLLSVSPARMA
Method description: fluorescence anisotropy
Settings: FA: 10 mM HEPES-NaOH pH 7.5, 150 mM NaCl, 21 C, 1 nM RNA, 30 min; smFRET in same buffer at 37 C; SEC 25 mM HEPES-Na pH 7.8, 150 mM NaCl, 4 C
Readout name: pKd
Answers are plain numbers, as −log10 of the molar value.

Challenge: I'd like to know its pKd. The sequence in question is GACCUAUUCUCUUUUUCUCU [20-nt RNA]
Response given: 7.46

###

Target or test system: σNS (sigma NS) (Avian reovirus strain 1733) (UniProt W8NR44)
Sequence: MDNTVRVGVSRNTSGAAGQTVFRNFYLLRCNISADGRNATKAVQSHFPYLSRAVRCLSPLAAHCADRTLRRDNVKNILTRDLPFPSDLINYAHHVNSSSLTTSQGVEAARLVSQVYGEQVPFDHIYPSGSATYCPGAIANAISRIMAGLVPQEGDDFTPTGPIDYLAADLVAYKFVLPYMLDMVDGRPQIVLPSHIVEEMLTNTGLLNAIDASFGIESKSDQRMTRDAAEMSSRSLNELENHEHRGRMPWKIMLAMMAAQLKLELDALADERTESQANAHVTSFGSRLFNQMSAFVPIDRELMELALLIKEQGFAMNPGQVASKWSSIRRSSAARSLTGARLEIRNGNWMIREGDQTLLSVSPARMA
Method description: fluorescence anisotropy
Settings: FA: 10 mM HEPES-NaOH pH 7.5, 150 mM NaCl, 21 C, 1 nM RNA, 30 min; smFRET in same buffer at 37 C; SEC 25 mM HEPES-Na pH 7.8, 150 mM NaCl, 4 C
Readout name: Kd

Please give Kd, item by item, for the list that follows.
1. ATAGGTATAACAGTTAACGTATGCTATACGCTAATAGCATACGTTT [46-nt stem-loop]
2. GACCUAUUCUCUUUUUCUCU [20-nt RNA]
3. GGGAGACCUAUUCUCUUUUUCUCUCCUUUUCCCCCCUGUUGCUUUAUUUUCCUUCUUUGCCUUUUUCUCUCUUUUUUUUUCUUUUUUCCCUUUCUGCUUUCCUCCCCUAUUCUCCCCUCUU [120-nt RNA]

Response given:
333 nM
26.5 nM
25 nM

###

Target or test system: σNS (sigma NS) (Avian reovirus strain 1733)
Sequence: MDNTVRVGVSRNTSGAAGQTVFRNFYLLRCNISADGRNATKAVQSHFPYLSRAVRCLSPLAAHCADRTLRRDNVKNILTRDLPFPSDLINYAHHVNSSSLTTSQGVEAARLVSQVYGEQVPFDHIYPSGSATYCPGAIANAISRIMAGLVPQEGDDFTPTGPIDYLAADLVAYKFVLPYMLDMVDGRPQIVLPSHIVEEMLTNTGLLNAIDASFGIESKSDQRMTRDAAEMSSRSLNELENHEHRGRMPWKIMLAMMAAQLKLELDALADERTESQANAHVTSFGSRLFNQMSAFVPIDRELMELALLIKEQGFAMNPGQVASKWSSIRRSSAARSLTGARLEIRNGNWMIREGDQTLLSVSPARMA
Method description: ensemble FRET
Settings: FA: 10 mM HEPES-NaOH pH 7.5, 150 mM NaCl, 21 C, 1 nM RNA, 30 min; smFRET in same buffer at 37 C; SEC 25 mM HEPES-Na pH 7.8, 150 mM NaCl, 4 C
Readout name: pKd
One number for each entry, as −log10 of the molar value.

Challenge: Identify the measured pKd of ATAGGTATAACAGTTAACGTATGCTATACGCTAATAGCATACGTTT [46-nt stem-loop] for σNS (sigma NS) (Avian reovirus strain 1733).
Response given: 5.96

###

Target or test system: σNS (sigma NS) (Avian reovirus strain 1733) (UniProt W8NR44)
Sequence: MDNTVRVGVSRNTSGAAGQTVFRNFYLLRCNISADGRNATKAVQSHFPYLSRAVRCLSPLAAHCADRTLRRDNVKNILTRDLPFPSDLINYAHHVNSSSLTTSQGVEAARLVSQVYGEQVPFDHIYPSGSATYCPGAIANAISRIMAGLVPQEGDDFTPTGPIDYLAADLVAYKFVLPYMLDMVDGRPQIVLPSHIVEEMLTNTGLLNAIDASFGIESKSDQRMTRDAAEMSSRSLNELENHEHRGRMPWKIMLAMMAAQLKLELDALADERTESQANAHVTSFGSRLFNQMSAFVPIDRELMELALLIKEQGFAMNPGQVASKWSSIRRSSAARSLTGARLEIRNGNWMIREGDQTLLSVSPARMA
Method description: FCS
Settings: FA: 10 mM HEPES-NaOH pH 7.5, 150 mM NaCl, 21 C, 1 nM RNA, 30 min; smFRET in same buffer at 37 C; SEC 25 mM HEPES-Na pH 7.8, 150 mM NaCl, 4 C
Readout name: Kd (nM)
One number for each entry, in nM.

Challenge: I'd like to know its Kd. The sequence in question is GACCUAUUCUCUUUUUCUCU [20-nt RNA]
Response given: 39.5
